Let's look at some compounds and their measured mass density.
- measurementNotes: mn = molality of the nth substance listed, in mol/kg
- protocolConditions: 293.15 K; 100 kPa; Liquid; Vibrating tube method; m1 = 0.1
Please give a number only; it is taken to be in kg/m3.

Look over these answered cases.
| compound | mass density / kg/m3 |
| --- | --- |
| CSCC[C@H](N)C(=O)O [L-methionine] + O | 1002.78 |
| CC(C)C[C@H](N)C(=O)O [L-leucine] + O | 1000.79 |

Sample NCC(=O)O [2-aminoacetic acid] + O ; mass density observed: 1001.51

Sample N[C@@H](Cc1c[nH]cn1)C(=O)O [L-histidine] + O ; mass density observed: 1003.99

====

- measurementNotes: mn = molality of the nth substance listed, in mol/kg
- protocolConditions: 318.15 K; 100 kPa; Liquid; Capillary tube (Ostwald / Ubbelohde) method; m1 = 0.1
measurementLabel: viscosity (mPa·s)
Please give a number only; it is taken to be in mPa·s.

Sample CSCC[C@H](N)C(=O)O [L-methionine] + O ; viscosity observed: 0.6105

====

- measurementNotes: mn = molality of the nth substance listed, in mol/kg
- protocolConditions: 293.15 K; 100 kPa; Liquid; Frequency=3 MHz; Sing-around technique in a fixed-path interferometer; m1 = 0.1
measurementLabel: speed of sound (m/s)
Please give a number only; it is taken to be in m/s.

Sample NCC(=O)O [2-aminoacetic acid] + O ; speed of sound observed: 1488.2

Sample CSCC[C@H](N)C(=O)O [L-methionine] + O ; speed of sound observed: 1493

Sample CC(C)C[C@H](N)C(=O)O [L-leucine] + O ; speed of sound observed: 1494.9

Sample N[C@@H](Cc1c[nH]cn1)C(=O)O [L-histidine] + O ; speed of sound observed: 1491.8

====

- measurementNotes: mn = molality of the nth substance listed, in mol/kg
- protocolConditions: 303.15 K; 100 kPa; Liquid; Capillary tube (Ostwald / Ubbelohde) method; m1 = 0.1
Let's look at some compounds and their measured viscosity.
Please give a number only; it is taken to be in mPa·s.

Look over these answered cases.
| compound | viscosity, mPa·s |
| --- | --- |
| CSCC[C@H](N)C(=O)O [L-methionine] + O | 0.8289 |
| CC(C)C[C@H](N)C(=O)O [L-leucine] + O | 0.8362 |
| NCC(=O)O [2-aminoacetic acid] + O | 0.808 |

Continue with the compound presented below.
Sample N[C@@H](Cc1c[nH]cn1)C(=O)O [L-histidine] + O ; viscosity observed: 0.8289

====

- measurementNotes: mn = molality of the nth substance listed, in mol/kg
- protocolConditions: 318.15 K; 100 kPa; Liquid; Frequency=3 MHz; Sing-around technique in a fixed-path interferometer; m1 = 0.1
Let's look at some compounds and their measured speed of sound.
Please give a number only; it is taken to be in m/s.

Look over these answered cases.
| compound | unitsText | speed of sound |
| --- | --- | --- |
| NCC(=O)O [2-aminoacetic acid] + O | m/s | 1541.3 |
| CC(C)C[C@H](N)C(=O)O [L-leucine] + O | m/s | 1545.9 |
| N[C@@H](Cc1c[nH]cn1)C(=O)O [L-histidine] + O | m/s | 1543.8 |

Sample CSCC[C@H](N)C(=O)O [L-methionine] + O ; speed of sound observed: 1544.2

====

- measurementNotes: mn = molality of the nth substance listed, in mol/kg
- protocolConditions: 313.15 K; 100 kPa; Liquid; Capillary tube (Ostwald / Ubbelohde) method; m1 = 0.1
measurementLabel: viscosity (mPa·s)
Please give a number only; it is taken to be in mPa·s.

Look over these answered cases.
| molecule | unitsText | dataValue |
| --- | --- | --- |
| CSCC[C@H](N)C(=O)O [L-methionine] + O | mPa·s | 0.6799 |
| NCC(=O)O [2-aminoacetic acid] + O | mPa·s | 0.6645 |
| CC(C)C[C@H](N)C(=O)O [L-leucine] + O | mPa·s | 0.6801 |

Continue with the molecule presented below.
Sample N[C@@H](Cc1c[nH]cn1)C(=O)O [L-histidine] + O ; viscosity observed: 0.6783

====

Let's look at some compounds and their measured speed of sound.
- measurementNotes: mn = molality of the nth substance listed, in mol/kg
- protocolConditions: 313.15 K; 100 kPa; Liquid; Frequency=3 MHz; Sing-around technique in a fixed-path interferometer; m1 = 0.1
Please give a number only; it is taken to be in m/s.

| compound | measurementLabel | unitsText | dataValue |
| --- | --- | --- | --- |
| NCC(=O)O [2-aminoacetic acid] + O | speed of sound | m/s | 1533.9 |

Sample CSCC[C@H](N)C(=O)O [L-methionine] + O ; speed of sound observed: 1537

Sample CC(C)C[C@H](N)C(=O)O [L-leucine] + O ; speed of sound observed: 1538.8

Sample N[C@@H](Cc1c[nH]cn1)C(=O)O [L-histidine] + O ; speed of sound observed: 1536.3

====

- measurementNotes: mn = molality of the nth substance listed, in mol/kg
- protocolConditions: 298.15 K; 100 kPa; Liquid; Capillary tube (Ostwald / Ubbelohde) method; m1 = 0.1
measurementLabel: viscosity (mPa·s)
Please give a number only; it is taken to be in mPa·s.

Sample CC(C)C[C@H](N)C(=O)O [L-leucine] + O ; viscosity observed: 0.9398

====

Let's look at some compounds and their measured speed of sound.
- measurementNotes: mn = molality of the nth substance listed, in mol/kg
- protocolConditions: 303.15 K; 100 kPa; Liquid; Frequency=3 MHz; Sing-around technique in a fixed-path interferometer; m1 = 0.1
Please give a number only; it is taken to be in m/s.

Sample N[C@@H](Cc1c[nH]cn1)C(=O)O [L-histidine] + O ; speed of sound observed: 1517.4

Sample CC(C)C[C@H](N)C(=O)O [L-leucine] + O ; speed of sound observed: 1520.2

Sample NCC(=O)O [2-aminoacetic acid] + O ; speed of sound observed: 1514.4

Sample CSCC[C@H](N)C(=O)O [L-methionine] + O ; speed of sound observed: 1518.5

====

- measurementNotes: mn = molality of the nth substance listed, in mol/kg
- protocolConditions: 298.15 K; 100 kPa; Liquid; Frequency=3 MHz; Sing-around technique in a fixed-path interferometer; m1 = 0.1
Let's look at some molecules and their measured speed of sound.
Please give a number only; it is taken to be in m/s.

Look over these answered cases.
| molecule | speed of sound, m/s |
| --- | --- |
| N[C@@H](Cc1c[nH]cn1)C(=O)O [L-histidine] + O | 1505.3 |
| CC(C)C[C@H](N)C(=O)O [L-leucine] + O | 1508.3 |
| CSCC[C@H](N)C(=O)O [L-methionine] + O | 1506.7 |

Continue with the molecule presented below.
Sample NCC(=O)O [2-aminoacetic acid] + O ; speed of sound observed: 1502.2

====

- measurementNotes: mn = molality of the nth substance listed, in mol/kg
- protocolConditions: 313.15 K; 100 kPa; Liquid; Vibrating tube method; m1 = 0.1
Let's look at some compounds and their measured mass density.
Please give a number only; it is taken to be in kg/m3.

Sample CC(C)C[C@H](N)C(=O)O [L-leucine] + O ; mass density observed: 994.559

Sample CSCC[C@H](N)C(=O)O [L-methionine] + O ; mass density observed: 996.591

Sample N[C@@H](Cc1c[nH]cn1)C(=O)O [L-histidine] + O ; mass density observed: 997.795

Sample NCC(=O)O [2-aminoacetic acid] + O ; mass density observed: 995.401

====

- measurementNotes: mn = molality of the nth substance listed, in mol/kg
- protocolConditions: 318.15 K; 100 kPa; Liquid; Capillary tube (Ostwald / Ubbelohde) method; m1 = 0.1
± gives the expanded uncertainty stated by the source.
Let's look at some molecules and their measured viscosity.
Note: state the figure and append the unit.

Look over these answered cases.
| molecule | dataValue |
| --- | --- |
| NCC(=O)O [2-aminoacetic acid] + O | 0.5988 ± 0.021 mPa·s |
| CC(C)C[C@H](N)C(=O)O [L-leucine] + O | 0.6014 ± 0.021 mPa·s |

Continue with the molecule presented below.
Sample N[C@@H](Cc1c[nH]cn1)C(=O)O [L-histidine] + O ; viscosity observed: 0.5915 ± 0.021 mPa·s

====

- measurementNotes: mn = molality of the nth substance listed, in mol/kg
- protocolConditions: 298.15 K; 100 kPa; Liquid; Capillary tube (Ostwald / Ubbelohde) method; m1 = 0.1
measurementLabel: viscosity (mPa·s)
Please give a number only; it is taken to be in mPa·s.

Look over these answered cases.
| compound | viscosity, mPa·s |
| --- | --- |
| NCC(=O)O [2-aminoacetic acid] + O | 0.9031 |
| CSCC[C@H](N)C(=O)O [L-methionine] + O | 0.92 |

Continue with the compound presented below.
Sample N[C@@H](Cc1c[nH]cn1)C(=O)O [L-histidine] + O ; viscosity observed: 0.928
